# System: RAW-Dual
# measurement_notes: NF-kB SEAP reporter activity, fold change vs agonist alone; cytotoxicity flag (confluency mask): not cytotoxic; higher = enhanced NF-kB activity
# particulars: agonist: Pam2CSK4 (TLR2/6) 0.1 ug/mL
Over roughly 2,900 compounds, “NF-kB SEAP reporter activity, fold change vs agonist alone” has its median near 0.99; the highest 2% begin near 2.6. For the sample, the highest values were picked, then their nearest neighbours and some compounds at random.
quantity: NF-kB SEAP reporter activity
Form field (numeric): enter value without unit.

| compound | result |
| --- | --- |
| Cl.Nc1ccc(Cl)cc1C(=O)C(F)(F)F (library stock concentration (final ~1000-fold dilution): 10 mM) | 1.01 |
| CCNC1CC(C)S(=O)(=O)c2sc(S(N)(=O)=O)cc21.Cl (configuration not stated) (library stock concentration (final ~1000-fold dilution): 10 mM water) | 1.09 |
| COc1ccccc1S(=O)(=O)Nc1ccc2c(c1)CN(C)C(=O)N2 (library stock concentration (final ~1000-fold dilution): 10 mM) | 0.457 |
| O=C(Nc1ccc(OC(F)(F)F)cc1)c1sccc1NCc1ccnc2ccccc12 (library stock concentration (final ~1000-fold dilution): 10 mM) | 0.672 |
| Cc1oncc1C(=O)Nc1ccc(C(F)(F)F)cc1 (library stock concentration (final ~1000-fold dilution): 10 mM) | 0.908 |
| COc1cc(OC2CCN(C)CC2)ccc1Nc1ncc2c(n1)n(C1CCCC1)c(=O)n2C (library stock concentration (final ~1000-fold dilution): 10 mM) | 0.964 |
| COc1ccc(C[C@@H]2c3cc(Oc4cc(C[C@@H]5c6cc(OC)c(OC)cc6CCN5C)ccc4O)c(OC)cc3CCN2C)cc1 (library stock concentration (final ~1000-fold dilution): 10 mM) | 0.121 |
| Cl.Nc1ccc(N=Nc2ccccc2)c(N)n1 (library stock concentration (final ~1000-fold dilution): 10 mM) | 1.09 |
| C=C(C)C1CCC2(C(=O)O)CCC3(C)C(CCC4C5(C)CCC(O)C(C)(C)C5CCC43C)C12 (configuration not stated) (library stock concentration (final ~1000-fold dilution): 10 mM) | 0.832 |
| Cn1cc(-c2[nH]c3cc(NC(=O)C(N)C4CCCCC4)cc4c3c2C=NNC4=O)cn1 (configuration not stated) (library stock concentration (final ~1000-fold dilution): 10 mM) | 1.6 |

QUERY: Quote NF-kB SEAP reporter activity reported for O=C(NCCO)c1cccc(-c2cc(Nc3ccc(OC(F)(F)F)cc3)ncn2)c1 (library stock concentration (final ~1000-fold dilution): 10 mM) please.
RESULT: 0.96

QUERY: Quote NF-kB SEAP reporter activity reported for Cl.NCCOc1ccc(Cl)cc1C(=O)Nc1ccc([N+](=O)[O-])cc1Cl (library stock concentration (final ~1000-fold dilution): 10 mM) please.
RESULT: 0.918

QUERY: Quote NF-kB SEAP reporter activity reported for O=C(Nc1ccc([N+](=O)[O-])cc1Cl)c1cc(Cl)ccc1O (library stock concentration (final ~1000-fold dilution): 10 mM) please.
RESULT: 0.379

QUERY: Quote NF-kB SEAP reporter activity reported for CCOC(=O)C(CCc1ccccc1)NC(C)C(=O)N1Cc2ccccc2CC1C(=O)O.Cl (configuration not stated) (library stock concentration (final ~1000-fold dilution): 10 mM) please.
RESULT: 1.26

QUERY: Quote NF-kB SEAP reporter activity reported for CCOC(=O)C=P(c1ccccc1)(c1ccccc1)c1ccccc1 (library stock concentration (final ~1000-fold dilution): 10 mM) please.
RESULT: 0.894

QUERY: Quote NF-kB SEAP reporter activity reported for N=C(N)NCCCC(N)C(=O)NCC(=O)NC(CC(=O)O)C(=O)O (configuration not stated) (library stock concentration (final ~1000-fold dilution): 10 mM water) please.
RESULT: 1.2

QUERY: Quote NF-kB SEAP reporter activity reported for O=C(Nc1cc(C(F)(F)F)ccc1N1CCCCC1)c1ccncc1 (library stock concentration (final ~1000-fold dilution): 10 mM) please.
RESULT: 0.764

QUERY: Quote NF-kB SEAP reporter activity reported for CC(ONC(=O)c1cc(C(F)(F)F)cc(C(F)(F)F)c1)C(=O)Nc1ccc(Cl)cc1 (configuration not stated) (library stock concentration (final ~1000-fold dilution): 10 mM) please.
RESULT: 0.239

The reported measurements were obtained from the supplement of paper PMC10037445.
